Data origin: patent US20250346644A1

target: T1, hIL2-DM-his (human, UniProt P60568 21-153); assay: BLI ForteBio, Ab on Protein A sensor
T1 construct: expressed in ExpiCHO-S cells, nickel-column purified; also called hIL-2 mutein containing two point mutations K64G and N90R (with a his-tag); not shown: his-tag
T1 sequence (P60568 21-153 K84G/N110R): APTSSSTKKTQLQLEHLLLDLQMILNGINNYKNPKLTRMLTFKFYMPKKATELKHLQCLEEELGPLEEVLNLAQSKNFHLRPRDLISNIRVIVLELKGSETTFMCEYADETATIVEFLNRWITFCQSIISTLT
experimental.endpoint: Kd (nM)
# unit: nM | format: bare number

| binder | obs.value |
| --- | --- |
| K1G11 (antibody, V domains shown) VH: QVQLVQSGAEVKKPGATVKISCKVSGDTITAYYMHWVRQAPGQGLEWIGRIDPDDDSTKYAENFKGRVTITADTSTDTAYMELSSLRSEDTAVYYCTTITFLYSRELRWFAYWGQGTLVTVSS VL: DIVLTQSPATLSLSPGERATLSCQASQYISNYLSWYQQKPGQAPRLLIYQATSLASGIPARFSGSRSGTDFTLTISSLEPEDFAVYYCLQHYSTPYTFGQGTKLEIK | 0.928 |

// query Kd value for entry K4G10 (antibody, V domains shown) VH: QVQLVQSGAEVKKPGATVKISCKVSGDTITAYYMHWVRQAPGQGLEWIGRIDPDDDSTKYAENFKGRVTITADTSTDTAYMELSSLRSEDTAVYYCTTITFYYTRELRWFAYWGQGTLVTVSS VL: DIVLTQSPATLSLSPGERATLSCQASQYIGNYLSWYQQKPGQAPRLLIYSATSLASGIPARFSGSRSGTDFTLTISSLEPEDFAVYYCLQHYSTPYTFGQGTKLEIK
2.47

Data request, read-out Kd, for K3G7 (antibody, V domains shown) VH: QVQLVQSGAEVKKPGATVKISCKVSGDTITAYYMHWVRQAPGQGLEWIGRIDPEDDSTKYAENFKGRVTITADTSTDTAYMELSSLRSEDTAVYYCTTITFYYTRELRWFAYWGQGTLVTVSS VL: DIVLTQSPATLSLSPGERATLSCQASQYIGNYLSWYQQKPGQAPRLLIYQATSLASGIPARFSGSRSGTDFTLTISSLEPEDFAVYYCLQHYSTPYTFGQGTKLEIK
1.96

What measured Kd goes with K1G9 (antibody, V domains shown) VH: QVQLVQSGAEVKKPGATVKISCKVSGDTITAYYMHWVRQAPGQGLEWIGRIDPEDDSTKYAENFKGRVTITADTSTDTAYMELSSLRSEDTAVYYCTTITFLYTRELRWFAYWGQGTLVTVSS VL: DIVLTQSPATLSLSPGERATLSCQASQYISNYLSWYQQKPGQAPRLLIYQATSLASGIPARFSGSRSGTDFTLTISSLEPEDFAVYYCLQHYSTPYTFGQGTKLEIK ?
0.856

Give the measured Kd of K2G7 (antibody, V domains shown) VH: QVQLVQSGAEVKKPGATVKISCKVSGDTITAYYMHWVRQAPGQGLEWIGRIDPEDDSTKYAENFKGRVTITADTSTDTAYMELSSLRSEDTAVYYCTTITFYYTRELRWFAYWGQGTLVTVSS VL: DIVLTQSPATLSLSPGERATLSCQASQYISNYLSWYQQKPGQAPRLLIYSATSLASGIPARFSGSRSGTDFTLTISSLEPEDFAVYYCLQHYSTPYTFGQGTKLEIK .
1.35
